A collection of compounds and their measured zone of inhibition at 100 µg/mL
# System: Aspergillus fumigatus
# assay-protocol: Antifungal activity against Aspergillus fumigatus at 100 ug/ml after 72 hrs by agar well diffusion method
# Assay type: functional
# condition-summary: read-out: IZ
observed-property: zone of inhibition at 100 µg/mL (mm)

INSERT INTO assay_data (structure_smiles_string, observed_property, units_text, value_measured) VALUES
  ('O=c1oc2ccccc2cc1-c1nc2sc(Cc3noc4ccccc34)nn2c1Br', 'zone of inhibition at 100 µg/mL', 'mm', 17),
  ('O=Nc1c(-c2ccc([N+](=O)[O-])cc2)nc2sc(Cc3noc4ccccc34)nn12', 'zone of inhibition at 100 µg/mL', 'mm', 11),
  ('COc1ccc(-c2nc3sc(Cc4noc5ccccc45)nn3c2SC#N)cc1', 'zone of inhibition at 100 µg/mL', 'mm', 16),
  ('Brc1ccc(-c2cn3nc(Cc4noc5ccccc45)sc3n2)cc1', 'zone of inhibition at 100 µg/mL', 'mm', 13),
  ('Clc1ccc(-c2cn3nc(Cc4noc5ccccc45)sc3n2)cc1', 'zone of inhibition at 100 µg/mL', 'mm', 16);

* * *

# System: Pseudomonas aeruginosa
# assay-protocol: Antibacterial activity against Pseudomonas aeruginosa ATCC 10145 at 100 ug/ml after 24 hrs by agar well diffusion method
# Assay type: functional
# condition-summary: ATCC 10145, 24 h, read-out: IZ
A collection of compounds and their measured zone of inhibition at 100 µg/mL
observed-property: zone of inhibition at 100 µg/mL (mm)

INSERT INTO assay_data (structure_smiles_string, assayed_system, units_text, value_measured) VALUES
  ('N#CSc1c(-c2cc3ccccc3oc2=O)nc2sc(Cc3noc4ccccc34)nn12', 'Pseudomonas aeruginosa', 'mm', 16),
  ('O=[N+]([O-])c1ccc(-c2nc3sc(Cc4noc5ccccc45)nn3c2Br)cc1', 'Pseudomonas aeruginosa', 'mm', 11),
  ('COc1ccc(-c2nc3sc(Cc4noc5ccccc45)nn3c2Br)cc1', 'Pseudomonas aeruginosa', 'mm', 17),
  ('O=Nc1c(-c2ccc(Br)cc2)nc2sc(Cc3noc4ccccc34)nn12', 'Pseudomonas aeruginosa', 'mm', 12);
